Measured pKd of individual entries
# experimental target: full length N-terminally FLAG-tagged PARP1 (Homo sapiens)
# Sequence (P09874 whole entry): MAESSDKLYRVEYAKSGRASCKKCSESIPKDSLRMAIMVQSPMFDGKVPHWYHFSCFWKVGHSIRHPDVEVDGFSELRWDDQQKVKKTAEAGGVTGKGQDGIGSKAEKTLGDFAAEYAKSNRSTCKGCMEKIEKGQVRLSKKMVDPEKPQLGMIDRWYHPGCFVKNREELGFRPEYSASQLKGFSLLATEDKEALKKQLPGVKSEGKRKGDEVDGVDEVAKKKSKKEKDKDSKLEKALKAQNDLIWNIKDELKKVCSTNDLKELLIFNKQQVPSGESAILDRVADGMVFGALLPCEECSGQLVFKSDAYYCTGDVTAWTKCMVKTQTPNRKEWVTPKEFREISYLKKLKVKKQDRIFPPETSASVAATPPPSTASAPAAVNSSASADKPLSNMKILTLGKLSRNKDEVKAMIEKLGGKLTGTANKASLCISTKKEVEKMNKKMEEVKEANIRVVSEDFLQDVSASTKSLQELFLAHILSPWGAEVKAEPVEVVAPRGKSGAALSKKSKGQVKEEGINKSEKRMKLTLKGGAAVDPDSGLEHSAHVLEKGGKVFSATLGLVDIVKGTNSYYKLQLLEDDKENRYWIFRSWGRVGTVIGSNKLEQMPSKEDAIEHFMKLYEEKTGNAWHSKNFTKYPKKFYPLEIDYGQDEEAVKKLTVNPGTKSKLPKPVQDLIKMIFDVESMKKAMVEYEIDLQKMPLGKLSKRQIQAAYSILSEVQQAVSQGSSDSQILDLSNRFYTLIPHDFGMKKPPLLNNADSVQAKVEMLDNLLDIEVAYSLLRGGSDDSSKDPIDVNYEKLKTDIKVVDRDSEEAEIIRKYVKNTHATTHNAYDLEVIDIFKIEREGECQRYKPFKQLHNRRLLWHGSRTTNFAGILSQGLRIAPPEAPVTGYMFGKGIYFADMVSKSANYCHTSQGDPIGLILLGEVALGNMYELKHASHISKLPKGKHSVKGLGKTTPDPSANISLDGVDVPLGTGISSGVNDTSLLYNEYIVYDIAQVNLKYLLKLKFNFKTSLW
# experiment notes: PARP1 probe displacement HTRF assay
# test parameters: read-out: PARP1 HTRF; binned Kd, PARP1 probe displacement HTRF
pKd: −log10 of the molar value.
test readout: pKd

| compound | reading |
| --- | --- |
| O=c1[nH]c(C2CCN(C3CCC(F)(F)CC3)C2)nc2ccccc12 (single isomer, unassigned) [Compound 4a] | 6.00 to 7.00 |
| N#Cc1ccc(N2CCC(N3CCC(c4nc5ccccc5c(=O)[nH]4)C3)CC2)nc1 (single isomer, unassigned) [Compound 55a] | > 8.00 |
| CCc1ccc(C2CCN(C3CCN(c4ccc(C(=O)NC)nn4)CC3)C2)[nH]c1=O (single isomer, unassigned) [Compound 210b] | > 8.00 |
| CNC(=O)c1ccc(N2CCC(N3CCCC(c4nc5c(Cl)cccc5c(=O)[nH]4)C3)CC2)cn1 (single isomer, unassigned) [Compound 44b] | 7.00 to 8.00 |
| CCNC(=O)c1ccc(N2CCC(N3CCC(c4ccc(CC)c(=O)[nH]4)C3)CC2)cn1 (racemic) [Compound 171rac] | > 8.00 |
| CNC(=O)c1ccc(N2CCC(N3CCC(c4nc5c(c(=O)[nH]4)CCCN5)C3)CC2)cn1 (single isomer, unassigned) [Compound 214b] | > 8.00 |
| N#Cc1ccc(N2CCC(N3CCC(c4nc5ccccc5c(=O)[nH]4)C3)CC2)nc1 (single isomer, unassigned) [Compound 55b] | 7.00 to 8.00 |

###

# experimental target: PARP2 (Homo sapiens)
# Sequence (Q9UGN5 whole entry): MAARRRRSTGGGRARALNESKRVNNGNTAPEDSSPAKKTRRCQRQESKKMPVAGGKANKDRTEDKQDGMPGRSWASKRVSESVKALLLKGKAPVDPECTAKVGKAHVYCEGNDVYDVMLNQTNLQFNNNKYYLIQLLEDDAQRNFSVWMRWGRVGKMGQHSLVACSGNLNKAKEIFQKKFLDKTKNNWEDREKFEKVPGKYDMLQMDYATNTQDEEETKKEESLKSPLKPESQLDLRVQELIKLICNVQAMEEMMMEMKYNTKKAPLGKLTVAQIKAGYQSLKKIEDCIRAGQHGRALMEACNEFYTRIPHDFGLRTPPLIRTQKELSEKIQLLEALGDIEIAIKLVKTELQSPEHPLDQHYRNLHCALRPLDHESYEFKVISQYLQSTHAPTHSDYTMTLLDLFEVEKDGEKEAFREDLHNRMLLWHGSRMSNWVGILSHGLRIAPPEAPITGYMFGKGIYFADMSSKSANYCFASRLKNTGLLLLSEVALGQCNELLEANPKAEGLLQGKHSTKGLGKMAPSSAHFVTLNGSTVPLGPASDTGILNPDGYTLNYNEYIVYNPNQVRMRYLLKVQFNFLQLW
# experiment notes: NanoBRET cellular target occupancy assay, PARP2
# test parameters: HEK293 cells transiently transfected with PARP2-NanoLuc fusion; tracer 2 nM; 2 hours at 37° C.; Kd by Cheng-Prussoff
pKd: −log10 of the molar value.
Measured pKd of individual entries
test readout: pKd

| compound | experimental target | reading |
| --- | --- | --- |
| CCc1ccc(C2CCN(C3CCN(c4ccc(C(=O)NCC(F)F)nc4)CC3)C2)[nH]c1=O (single isomer, unassigned) [Compound 354b] | PARP2 (Homo sapiens) | 6.00 to 7.00 |
| CCc1ccc(C2CCN(C3CCN(c4ccc(C(=O)NC5CC5)nc4F)CC3)C2)[nH]c1=O (single isomer, unassigned) [Compound 353a] | PARP2 (Homo sapiens) | 6.00 to 7.00 |
| CNC(=O)c1ccc(N2CCC(N3CCC(c4cc5ccc(F)cc5c(=O)[nH]4)C3)CC2)c(F)n1 (single isomer, unassigned) [Compound 174a] | PARP2 (Homo sapiens) | 5.00 to 6.00 |
| CNC(=O)c1ccc(N2CCC(N3CCC(c4cc5c(F)ccc(F)c5c(=O)[nH]4)C3)CC2)c(F)n1 (single isomer, unassigned) [Compound 323b] | PARP2 (Homo sapiens) | 6.00 to 7.00 |

###

Measured pKd of individual entries
# experimental target: N-terminally FLAG-tagged PARP2 (amino acids 1-583) (Homo sapiens)
# Construct: N-terminally FLAG-tagged PARP2 (amino acids 1-583)
# experiment notes: PARP2 probe displacement HTRF assay
# Format: binding
# test parameters: binned Kd, probe displacement HTRF
pKd: −log10 of the molar value.

| compound | pKd |
| --- | --- |
| CNC(=O)c1ccc(N2CCC(N3CCC(c4[nH]c(=O)c5cc(F)ccc5c4F)C3)CC2)cn1 (single isomer, unassigned) [Compound 370b] | 7.00 to 8.00 |
| CNC(=O)c1ccc(N2CCC(N3CC4(c5nc6c(c(=O)[nH]5)CCCN6C)CC3C4)CC2)cn1 | 7.00 to 8.00 |
| CNC(=O)c1ccc(N2CCC(N3CCC(F)(c4nc5ccccc5c(=O)[nH]4)C3)CC2)cn1 (single isomer, unassigned) [Compound 328b] | < 5.00 |
| CNC(=O)c1ccc(N2CCC(N3CCC(c4[nH]c(=O)c5cc(F)ccc5c4F)C3)CC2)cn1 (single isomer, unassigned) [Compound 401b] | 7.00 to 8.00 |
| O=C(NC1CC1)c1ccc(N2CCC(N3CCC(c4cc5ncc(F)cc5c(=O)[nH]4)C3)CC2)cn1 (single isomer, unassigned) [Compound 372b] | 7.00 to 8.00 |
| CNC(=O)c1ccc(N2CCC(N3CCC(c4nc5c(C(F)(F)F)c[nH]c5c(=O)[nH]4)C3)CC2)cn1 (single isomer, unassigned) [Compound 293a] | < 5.00 |
